assay: Caco-2 monolayer permeability; conditions: human
READOUT_TYPE: Papp A→B at 2 h, 50 μM (×10⁻⁶ cm/s)
Response body: numeric value in ×10⁻⁶ cm/s, unit text excluded.

Ask | For CC(Oc1cc(C(F)(F)F)cc(C(F)(F)F)c1)C1CC(=O)CC(=O)C1 (stereo not shown) , write its Papp A→B at 2 h, 50 μM.
Reply | 24.8
